- Tested on: CHO
- experimental-protocol: Cytotoxicity against CHO cells after 48 hrs by MTT assay
- Format: cell-based
- condition-info: Cricetulus griseus
measured-property: pIC50
Friendly reminder that pIC50 comes from taking -log10 of the concentration in mol/L.

smiles-record	pIC50
C[n+]1c(-c2ccccc2)nn(CC(=O)CCc2ccccc2)c1-c1ccccc1	3.84
O=C(Cn1cncn1)c1ccccc1	3.48
Fc1c(F)c(F)c(-n2c[n+]3c(n2)CCC3)c(F)c1F	3.52
Brc1ccc(Cn2cc[n+](Cc3ccc4ccccc4c3)c2)cc1	4.57
O=C(Cn1c[n+](CC(=O)c2ccc(Br)cc2)cn1)c1ccc(Br)cc1	4.68

Dear colleague, I am looking for the recorded pIC50 of the following compound: O=C(Cn1cc[n+](CC(=O)c2ccc(Cc3ccccc3)cc2)c1)c1ccc(Cc2ccccc2)cc1
5.37

Look at this compound and give its reported pIC50. c1ccc(Cn2c[n+](Cc3ccccc3)cn2)cc1
4.13

What value of pIC50 has been reported for the following compound? O=C(Cn1cc[n+](CC(=O)c2ccc(Cl)cc2)c1)c1ccc(Cl)cc1
4.28

Looking for the measured pIC50 of C[n+]1c(-c2ccccc2)nn(Cc2ccc(Br)cc2)c1-c1ccccc1 , can you help?
4.48

Reported pIC50, compound c1ccc2cc(Cn3cc[n+](Cc4ccc5ccccc5c4)c3)ccc2c1 : ____
4.57

May I ask what pIC50 has been recorded for CSc1nn(-c2ccccc2)c(C)[n+]1-c1ccccc1 ?
3.51

I am curious: what pIC50 value has been reported for Ic1ccc(Cn2cc[n+](Cc3ccc(I)cc3)c2)cc1 ?
4.48

Query (compound): CSc1nn(-c2ccccc2)c[n+]1-c1ccccc1 ; field requested: pIC50
3.65

Recorded pIC50 for Brc1ccc(Cn2cc[n+](Cc3ccc(Br)cc3)c2)cc1 , please?
3.76

For O=C(Cn1c[n+](Cc2ccccc2)cn1)c1ccccc1 , what is its reported pIC50?
3.58

Which pIC50 reading was recorded for the compound Fc1ccc(Cn2cc[n+](Cc3ccc(F)cc3)c2)cc1 ?
4.25

Requested field: pIC50. Item: C[n+]1c(-c2ccccc2)nn(Cc2ccccc2)c1-c1ccccc1
4.06

Using the record for COc1ccc(Cn2cc[n+](Cc3ccc(OC)cc3)c2)cc1 , report its pIC50.
4.51

Which pIC50 is listed for c1c[nH]cn1 ?
2.43

Any idea what its pIC50 is? The compound is c1nc[nH]n1
2.90

So what does the record say about pIC50 for C[n+]1cn(CC(=O)CCc2ccccc2)nc1-c1ccccc1 ?
3.63

---

- Test system: Plasmodium falciparum
- experimental-protocol: Antiplasmodial activity against Plasmodium falciparum 3D7 after 72 by LDH assay
- Type: functional, organism-based
measured-property: log10 IC50 (log10 of the value in µM)
Note the log scale: values are log10 of IC50 expressed in µM.

Give the measured log10 IC50 of O=C(Cn1c[n+](Cc2ccccc2)cn1)c1ccccc1 .
1.86

Name the reported log10 IC50 value associated with the molecule Brc1ccc(Cn2cc[n+](Cc3ccc(Br)cc3)c2)cc1
-0.15

So what's the measured log10 IC50 for this one? O=C(Cn1cc[n+](CC(=O)c2ccc(Cc3ccccc3)cc2)c1)c1ccc(Cc2ccccc2)cc1
-0.30

---

- Tested on: Plasmodium falciparum
- experimental-protocol: Antiplasmodial activity against Plasmodium falciparum 3D7 after 72 by LDH assay
- Type: functional, organism-based
measured-property: IC50 (nM)
Form entry: value (nM) — number only.

// worked examples, IC50 included
smiles-record	target-desc	endpoint-result
C[n+]1c(-c2ccccc2)nn(Cc2ccc(Br)cc2)c1-c1ccccc1	Plasmodium falciparum	1680
c1ccc(Cn2cc[n+](Cc3ccc4ccccc4c3)c2)cc1	Plasmodium falciparum	900
C[n+]1c(-c2ccccc2)nn(CC(=O)CCc2ccccc2)c1-c1ccccc1	Plasmodium falciparum	100
c1ccc2cc(Cn3cc[n+](Cc4ccc5ccccc5c4)c3)ccc2c1	Plasmodium falciparum	900

Now turn to the next compound.
# input compound: O=[N+]([O-])c1ccc(Cn2cc[n+](Cc3ccc([N+](=O)[O-])cc3)c2)cc1 ; wanted: its IC50
9000

---

The following compounds are shown together with reported IC50 values.
- System: Plasmodium falciparum
- experimental-protocol: Antiplasmodial activity against Plasmodium falciparum 3D7 after 72 by LDH assay
- Assay type: functional, organism-based
Numeric answer only, unit µM assumed.

See these solved cases before continuing.
smiles-record	measured-property	endpoint-result
Clc1ccccc1Cn1cc[n+](Cc2ccccc2Cl)c1	IC50	2
Fc1ccc(Cn2cc[n+](Cc3ccc(F)cc3)c2)cc1	IC50	17
c1ccc(Cn2cc[n+](Cc3ccccc3)c2)cc1	IC50	16
Ic1ccc(Cn2cc[n+](Cc3ccc(I)cc3)c2)cc1	IC50	0.35
Clc1ccc(Cn2cc[n+](Cc3ccc(Cl)cc3)c2)cc1	IC50	9
Brc1ccccc1Cn1cc[n+](Cc2ccccc2Br)c1	IC50	1.4
Brc1ccc(Cn2cc[n+](Cc3ccc4ccccc4c3)c2)cc1	IC50	0.73
Clc1cccc(Cn2cc[n+](Cc3cccc(Cl)c3)c2)c1	IC50	3.3
Brc1cccc(Cn2cc[n+](Cc3cccc(Br)c3)c2)c1	IC50	1.05
O=C(Cn1c[n+](CC(=O)c2ccc(Br)cc2)cn1)c1ccc(Br)cc1	IC50	10.9

Consider the compound shown here: CSc1nn(-c2ccccc2)c[n+]1-c1ccccc1 What is its recorded IC50?
69

Endpoint output: IC50 of c1c[nH]cn1 . Value?
368

Would you mind telling me what IC50 value was observed for Fc1c(F)c(F)c(-n2c[n+]3c(n2)CCC3)c(F)c1F ?
89

Bench note: what IC50 did c1ccc(Cn2c[n+](Cc3ccccc3)cn2)cc1 show?
100

Need IC50, item O=C(Cn1cc[n+](CC(=O)c2ccc(Cl)cc2)c1)c1ccc(Cl)cc1
2.6

Which IC50 is reported for this compound? CSc1nn(-c2ccccc2)c(C)[n+]1-c1ccccc1
3.1

Would you kindly share the measured IC50 for C[n+]1c(-c2ccccc2)nn(Cc2ccccc2)c1-c1ccccc1 ?
7.8

Look up IC50: c1nc[nH]n1
2900

---

As shown below, each of these molecules has a reported IC50 value.
- Tested on: Plasmodium falciparum
- experimental-protocol: Antiplasmodial activity against Plasmodium falciparum 3D7 after 72 by LDH assay
- Format: functional, organism-based
Only the number, expressed in µM, is required.

Previously resolved entries follow.
smiles-record	measured-property	endpoint-result
Brc1ccc(C[n+]2ccn(Cc3ccccc3)c2)cc1	IC50	2.9
O=C(Cn1cncn1)c1ccccc1	IC50	894
COc1ccc(Cn2cc[n+](Cc3ccc(OC)cc3)c2)cc1	IC50	5

Continue with the next molecule.
Please report the recorded IC50 for C[n+]1cn(CC(=O)CCc2ccccc2)nc1-c1ccccc1 .
3.4

The measurements presented in this section are drawn from ChEMBL document CHEMBL1212856.
